test system: HepG2; test: GSK_TCMDC: Percent inhibition of human HepG2 cell line. Test compounds present at 10uM.; assay type: functional
Classes by Inhibition: 0 = under 10%, 1 = from 10% up to 40%, 2 = 40% and over

COMPOUND: O=C(NCc1cccc(C(F)(F)F)c1)c1ccc(CNC(=O)c2ccc(O)c(-c3ccc(Cl)c(Cl)c3)c2)cc1
TARGET OR TEST SYSTEM: HepG2
ANSWER LABEL: 0
--
COMPOUND: COc1ccc2nccc([C@@H](O)CN3CCC(NCc4cc5ccccc5[nH]4)CC3)c2c1.CS(=O)(=O)O
TARGET OR TEST SYSTEM: HepG2
ANSWER LABEL: 2
--
COMPOUND: CCS(=O)(=O)N1CCN(c2nc(-c3ccccc3)nc(COC)c2Cc2ccccc2F)CC1
TARGET OR TEST SYSTEM: HepG2
ANSWER LABEL: 0
--
COMPOUND: CO/C(=C\C=C\c1cc2cc(Cl)c(Cl)cc2[nH]1)C(=O)NCCCN1CCN(c2cccc(OCC(=O)Nc3ccccc3)c2)CC1
TARGET OR TEST SYSTEM: HepG2
ANSWER LABEL: 2
--
COMPOUND: CCNc1cc(C(=O)N[C@@H](Cc2ccccc2)[C@H](O)CN[C@@H](C)c2cccc(OC)c2)cc(N2CCCC2=O)c1.O=CO
TARGET OR TEST SYSTEM: HepG2
ANSWER LABEL: 0
--
COMPOUND: Br.CCCOc1ccc(CCCON2C(N)=NC(N)=NC2(C)C)cc1
TARGET OR TEST SYSTEM: HepG2
ANSWER LABEL: 2
--
COMPOUND: COCCn1c(Sc2ccc(C#N)c([N+](=O)[O-])c2)nnc1-c1ccc(N(C)C)cc1
TARGET OR TEST SYSTEM: HepG2
ANSWER LABEL: 0
--
COMPOUND: COc1cccc(C2CCN(CCN3CCC(NC(=O)c4ccc(-c5ccc(C#N)cc5)cc4)CC3)CC2)c1
TARGET OR TEST SYSTEM: HepG2
ANSWER LABEL: 1
--
COMPOUND: Cc1ccc2nc(-c3ccc(/C=C/C(=O)NC4CCN(Cc5ccccc5)CC4)cc3)[nH]c2c1C
TARGET OR TEST SYSTEM: HepG2
ANSWER LABEL: 1
--
COMPOUND: CC(=O)O.C[C@H](NC(=O)[C@H](Cc1ccccc1)NC(=O)OC(C)(C)C)C(=O)N[C@@H](CC1CCCCC1)C(O)CN (stereo not given in full)
TARGET OR TEST SYSTEM: HepG2
ANSWER LABEL: 0

# classify by Inhibition band: O=C(Nc1ccc(C(F)(F)F)cc1)NC1CCN(c2ccnc3ccccc23)C1.O=C(O)C(F)(F)F (stereo not given)
1

# classify by Inhibition band: CCCCSc1nc2c(c(=O)n1Cc1ccco1)C1(CCCCC1)Cc1ccccc1-2
1

# classify by Inhibition band: Cc1cccc2nc(-c3cccc(-c4ccc(NC(=O)Nc5cccc(C#N)c5)cc4)c3)[nH]c12
2

# classify by Inhibition band: CCn1c(-c2nonc2N)nc2c(Cl)ncc(O[C@H](CCN)c3ccccc3F)c21.Cl
1

# classify by Inhibition band: Cc1ccccc1CN1CCCN(Cc2ccc(C(=O)Nc3ccc(Cl)cc3)cc2)CC1.O=C(O)C(F)(F)F
2
